Target: HLA-DRB1*08:01 MHCII molecule (human)
Assay: saturation binding ELISA
pKd: −log10 of the molar value. Where no end group is shown, it is not given here.

{"binder": "PVSKMRMATPLLMQA (also: biotinylated, position not given here) [biotinylated high affinity huCLIP]", "pKd": 7.84}
